# measuredTarget: IRAK4 (Homo sapiens (Human))
# Sequence (Q9NWZ3 whole entry, species assumed): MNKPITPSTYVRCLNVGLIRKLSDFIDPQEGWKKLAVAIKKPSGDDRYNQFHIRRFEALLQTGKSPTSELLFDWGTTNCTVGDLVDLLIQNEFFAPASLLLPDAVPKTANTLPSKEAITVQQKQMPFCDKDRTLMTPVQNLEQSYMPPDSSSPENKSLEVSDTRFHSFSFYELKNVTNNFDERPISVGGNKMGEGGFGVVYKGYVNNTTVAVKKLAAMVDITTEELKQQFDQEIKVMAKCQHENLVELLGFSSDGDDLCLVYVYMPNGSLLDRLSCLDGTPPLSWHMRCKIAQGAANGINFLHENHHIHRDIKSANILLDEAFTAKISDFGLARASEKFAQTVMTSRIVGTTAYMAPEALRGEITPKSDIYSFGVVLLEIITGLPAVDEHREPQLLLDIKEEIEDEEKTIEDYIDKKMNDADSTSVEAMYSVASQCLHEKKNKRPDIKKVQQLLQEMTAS
# assayNotes: IRAK4 Inhibition Assay
# Format: biochemical
# assaySetup: IRAK4 Inhibition Assay; ATP 500 μM; read-out: IRAK4 IC50
pIC50: −log10 of the molar value.

molecule	pIC50
CCCNC(=O)c1cnc(-n2ncc3cc(C#N)c(N)nc32)cc1NC(C)C	7.94
CC(C)Nc1cc(-n2ncc3cc(C#N)cnc32)ncc1C(=O)Nc1cnn(C2COC2)c1	7.97
CC(C)(O)[C@H](F)CNC(=O)c1cnc(-n2ccc3cc(C#N)cnc32)cc1Nc1ccc(C(N)=O)cc1	8.74
CC(C)Nc1cc(-n2cnc3cnc(NCCO)nc32)ncc1C(=O)NC[C@@H](F)C(C)(C)O	8.60
CC(C)(O)[C@H](F)CNC(=O)c1cnc(-n2ccc3cc(C(N)=O)cnc32)cc1NC1CCC1	8.32
CC(C)(CO)Nc1cc(-n2ncc3cc(C#N)cnc32)ncc1C(=O)NC[C@@H](F)C(C)(C)O	8.33
CC(C)Nc1cc(-n2ccc3cc(C#N)cnc32)ncc1C(=O)N[C@H]1CC[C@](F)(c2nccs2)CC1	8.28
CC(C)Nc1cc(-n2ncc3cc(C#N)cnc32)ncc1C(=O)NCCC1CCN(C(=O)CC#N)CC1	8.10
CC(C)Nc1cc(-n2ncc3cc(C#N)cnc32)ncc1C(=O)NC[C@@H](F)C(C)(C)F	8.52
COC1CCN(c2ccc(NC(=O)c3cnc(-n4ncc5cc(C#N)cnc54)cc3NC(C)C)nc2)CC1	8.00
CC(C)(O)[C@H](F)CNC(=O)c1cnc(-n2ccc3cc(C#N)cnc32)cc1NC1CC(F)(F)C1	8.72
CCn1cc(Nc2cc(-n3ncc4cc(Cl)cnc43)ncc2C(=O)NC[C@@H](F)C(C)(C)O)cn1	8.77
CC(C)(O)[C@H](F)CNC(=O)c1cnc(-n2ccc3cc(C#N)cnc32)cc1NC[C@@H](F)C(C)(C)O	8.62
CC(C)(O)[C@H](F)CNC(=O)c1cnc(-n2ccc3cc(C#N)cnc32)cc1NC1CCOCC1F (single isomer, unassigned) [Example 107]	8.74
CNC(=O)[C@H]1CC[C@H](NC(=O)c2cnc(-n3ncc4cc(Cl)cnc43)cc2NC(C)C)CC1	8.25
CC(C)(O)[C@H](F)CNC(=O)c1cnc(-n2ncc3cc(C#N)cnc32)cc1NC1CCCOC1 (single isomer, unassigned) [Example 142]	7.94
CNC(=O)[C@H]1CC[C@H](NC(=O)c2cnc(-n3ccc4cc(C#N)cnc43)cc2NC2CC2)CC1	7.88
CC(C)Nc1cc(-n2ncc3cc(C#N)cnc32)ncc1C(=O)NCCC(C)NS(C)(=O)=O (centres unmarked) [Example 265]	8.62
CC(C)Nc1cc(-n2ccc3cc(C#N)cnc32)ncc1C(=O)N[C@H]1CC[C@H](C(C)(C)O)CC1	8.85
CC(C)Nc1cc(-n2ccc3cc(C#N)cnc32)ncc1C(=O)N[C@H]1CC[C@@](F)(c2nccn2C)CC1	8.74
CC(C)Nc1cc(-n2ncc3cc(C#N)cnc32)ncc1C(=O)NCC(=O)N1CCOCC1	7.84
CNC(=O)[C@H]1CC[C@H](NC(=O)c2cnc(-n3ccc4cc(C#N)cnc43)cc2N[C@@H](C)CO)CC1	8.48
CCn1cc(Nc2cc(-n3ncc4cc(C#N)cnc43)ncc2C(=O)NC[C@@H](F)C(C)(C)O)cn1	8.62
C[C@H](CF)Nc1cc(-n2ccc3cc(C#N)cnc32)ncc1C(=O)NC[C@@H](F)C(C)(C)O	8.74
CC(C)(C)NC(=O)c1cnc(-n2ncc3cc(C#N)cnc32)cc1Nc1cnn(CC(F)F)c1	7.77
CC(C)Nc1cc(-n2ncc3cc(C#N)cnc32)ncc1C(=O)NCCC1(O)CCOC1 (centres unmarked)	8.17
CC(C)Nc1cc(-n2ccc3cc(C#N)cnc32)ncc1C(=O)N[C@H]1CC[C@](O)(c2nccn2C)CC1	8.19
CC(C)Nc1cc(-n2ccc3cc(C#N)cnc32)ncc1C(=O)N[C@H]1CC[C@H](C(=O)NC(C)C)CC1	8.72
COc1cnc2c(cnn2-c2cc(NC(C)C)c(C(=O)NC[C@@H](F)C(C)(C)O)cn2)c1	7.71
